# measured-on: Histamine H2 receptor (Cavia porcellus, UniProt P47747)
# Sequence (P47747 whole entry): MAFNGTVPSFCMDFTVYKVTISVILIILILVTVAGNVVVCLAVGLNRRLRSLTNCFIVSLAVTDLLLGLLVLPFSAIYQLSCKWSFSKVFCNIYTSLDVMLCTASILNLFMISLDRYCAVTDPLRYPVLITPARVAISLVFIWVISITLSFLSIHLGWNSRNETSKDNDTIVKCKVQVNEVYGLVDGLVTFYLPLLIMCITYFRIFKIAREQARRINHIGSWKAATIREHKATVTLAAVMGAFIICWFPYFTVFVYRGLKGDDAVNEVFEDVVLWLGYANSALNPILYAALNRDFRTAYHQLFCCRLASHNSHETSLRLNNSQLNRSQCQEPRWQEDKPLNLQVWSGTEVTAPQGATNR
# method-summary: Histamine H2 receptor antagonism on the right atrium of the guinea pig
# Assay type: functional, tissue-based, Cardiac atrium
# study-conditions: read-out: pA2 (converted)
Exercise: state measured log10 Kb for each of the compounds provided.
Short version: log10 scale, Kb, nM.

INSERT INTO results (compound, test_value) VALUES
  ('CC(C)CN/C=N/c1ccc(-c2c[nH]cn2)cc1', 0.72),
  ('CN/C=N/c1ccc(-c2c[nH]cn2)cc1', 3.08),
  ('CCC(C)N/C=N/c1ccc(-c2c[nH]cn2)cc1 (centres undefined)', 1.15);

// for each compound in input: emit log10 Kb
1. CCC(C)(C)N/C=N/c1ccc(-c2c[nH]cn2)cc1
2. CC(C)/N=C/Nc1ccc(-c2c[nH]cn2)cc1
3. CCCCN/C=N/c1ccc(-c2c[nH]cn2)cc1

1. 0.88
2. 1.45
3. 1.05

// for each compound in input: emit log10 Kb
1. CC/N=C/Nc1ccc(-c2c[nH]cn2)cc1
2. CC(C)(C)/N=C/Nc1ccc(-c2c[nH]cn2)cc1
3. CCC(CC)N/C=N/c1ccc(-c2c[nH]cn2)cc1

1.63
1.05
1.50

Origin of values: ChEMBL document CHEMBL1125709
